Consider the following compounds and their measured pKi readings.
molecular target: human Factor Xa (Homo sapiens (Human))
Sequence (P00742 235-488): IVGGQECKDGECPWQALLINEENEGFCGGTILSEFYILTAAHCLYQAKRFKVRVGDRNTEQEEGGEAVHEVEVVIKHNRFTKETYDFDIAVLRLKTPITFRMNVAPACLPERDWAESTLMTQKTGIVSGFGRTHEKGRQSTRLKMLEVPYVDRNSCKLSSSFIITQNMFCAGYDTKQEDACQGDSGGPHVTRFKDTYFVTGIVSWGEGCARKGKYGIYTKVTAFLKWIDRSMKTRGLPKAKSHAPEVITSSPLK
Sequence (P00742 41-179): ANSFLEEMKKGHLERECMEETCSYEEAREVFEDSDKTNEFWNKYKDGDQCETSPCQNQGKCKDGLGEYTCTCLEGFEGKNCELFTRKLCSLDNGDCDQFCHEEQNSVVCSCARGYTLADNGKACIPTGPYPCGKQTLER
pKi: −log10 of the molar value.

Entry `O=C1c2c(c(C(F)(F)F)nn2-c2ccc3cc(Cl)ccc3c2)CCN1C1CCN(N2CCOCC2=O)CC1` : pKi on human Factor Xa (Homo sapiens (Human)) = ≥ 8.00

Entry `O=C1c2c(c(C(F)(F)F)nn2-c2ccc(OC(F)F)cc2)CCN1C1CCN(N2CCOCC2=O)CC1` : pKi on human Factor Xa (Homo sapiens (Human)) = ≥ 8.00

Entry `N#Cc1cc(-n2nc(C(F)(F)F)c3c2C(=O)N(C2CCN(N4CCOCC4=O)CC2)CC3)ccc1OC(F)F` : pKi on human Factor Xa (Homo sapiens (Human)) = 6.00 to 7.30

More entries:
Entry `COc1ccc(-n2nc(C(N)=O)cc2C(=O)N(C2CC2)C2CCN(N3CCOCC3=O)CC2)cc1` : pKi on human Factor Xa (Homo sapiens (Human)) = 6.00 to 7.30

Entry COc1ccc(-n2nc(C(N)=O)c3c2C(=O)N(C2CCN(C4CCNC4=O)CC2)CC3)cc1 (single isomer, unassigned) : pKi on human Factor Xa (Homo sapiens (Human)) = 6.00 to 7.30

Entry COc1ccc(-n2nc(C(N)=O)c3c2C(=O)N(C2C4CN(N5CCOCC5=O)CC42)CC3)cc1 (stereo not drawn) : pKi on human Factor Xa (Homo sapiens (Human)) = 7.30 to 8.00

Entry `COc1ccc(-n2nc(C(F)(F)F)c3c2C(=O)N(C2CCN(N4CCCC4=O)CC2)CC3)cc1` : pKi on human Factor Xa (Homo sapiens (Human)) = ≥ 8.00

Entry `N#Cc1cccc(-n2nc(C(F)(F)F)c3c2C(=O)N(C2CCN(N4CCOCC4=O)CC2)CC3)c1` : pKi on human Factor Xa (Homo sapiens (Human)) = 7.30 to 8.00
